Record form. Attribute: survival and reproduction score. Fill in for each entry.
- System: Caenorhabditis elegans L1 (N2)
- experimentSummary: survival and reproduction score of C. elegans L1 (0: 0-10 living worms, 1: 11-20, 2: 21-50, 3: >50, 4: overgrown) (score 0-4); higher = more worms, less nematicidal, active = 1 or less; extreme values may be limits of the assay
- setupConditions: 60 µM; 6 days; temperature: 20 °C
Give bare numbers.

As a guide, the following entries are already answered.
smilesNotation: CCc1cccc(CC)c1NC(=O)CSc1nnc(-c2ccccc2OC)o1
survival and reproduction score: 4

smilesNotation: CC(C)NC(=O)N1CC(=O)N(c2cc(Cl)cc(Cl)c2)C1=O
survival and reproduction score: 4

smilesNotation: O=C(Nc1ccc(-c2noc(-c3ccccn3)n2)cc1)c1cccc(Cl)c1
survival and reproduction score: 4

smilesNotation: CC(=O)c1cccc(NC(=O)CSc2nnc(-c3ccccc3)o2)c1
survival and reproduction score: 4

smilesNotation: CCCCc1ccc(-c2nc(-c3cccnc3)no2)cc1
survival and reproduction score: 0

Give measured survival and reproduction score for every item shown.
1. Clc1ccc(OCc2nc(-c3ccccc3)no2)c(Cl)c1
2. COc1ccc(CSc2nnc(-c3ccc(Cl)cc3Cl)o2)cc1
3. Brc1ccc(-c2noc(-c3cccs3)n2)cc1
4. COc1ccc(Cl)cc1-c1nc(-c2ccccc2C)no1
5. CCc1ccc(OCc2nc(-c3cccnc3)no2)cc1

Result:
1: 0; 2: 0; 3: 0; 4: 4; 5: 4

====

- Tested on: Caenorhabditis elegans L1 (N2)
- experimentSummary: survival and reproduction score of C. elegans L1 (0: 0-10 living worms, 1: 11-20, 2: 21-50, 3: >50, 4: overgrown) (score 0-4); higher = more worms, less nematicidal, active = 1 or less; extreme values may be limits of the assay
- setupConditions: 60 µM; 6 days; temperature: 20 °C
measurementName: survival and reproduction score
Numbers only.

As a guide, the following entries are already answered.
compound: CCOc1ccccc1-c1nc(-c2ccc(F)cc2)no1
observedResult: 4

compound: CC1CC(C)CN(C(=O)CSc2nnc(-c3cccc(Cl)c3)o2)C1 (stereo unspecified)
observedResult: 4

compound: Cc1ccc(NC(=O)CSc2nnc(-c3ccc(C(C)(C)C)cc3)o2)c(C)c1
observedResult: 2

compound: Cn1c(SCc2cccc(F)c2)nnc1-c1ccco1
observedResult: 4

compound: Cc1cc(C)c(CSc2nnc(-c3ccccc3)o2)c(C)c1
observedResult: 4

Moving on to the next compound.
Lookup result for Fc1ccc(-c2noc(-c3ccc(F)cc3)n2)cc1 ; measured survival and reproduction score: 0

====

- Tested on: Caenorhabditis elegans L1 (N2)
- experimentSummary: survival and reproduction score of C. elegans L1 (0: 0-10 living worms, 1: 11-20, 2: 21-50, 3: >50, 4: overgrown) (score 0-4); higher = more worms, less nematicidal, active = 1 or less; extreme values may be limits of the assay
- setupConditions: 60 µM; 6 days; temperature: 20 °C
measurementName: survival and reproduction score
Give bare numbers.

smilesNotation: COc1cccc(-c2noc(COc3ccc(Cl)cc3)n2)c1
testTarget: Caenorhabditis elegans L1 (N2)
survival and reproduction score: 4
--
smilesNotation: Fc1ccc(OCc2nc(-c3ccc(Br)cc3)no2)cc1
testTarget: Caenorhabditis elegans L1 (N2)
survival and reproduction score: 3
--
smilesNotation: COc1ccc(CC(=O)Nc2ccc(-c3noc(COc4cccc(C)c4C)n3)cc2)cc1
testTarget: Caenorhabditis elegans L1 (N2)
survival and reproduction score: 4
--
smilesNotation: Cc1ccc(-c2noc(-c3ccc(-n4nncc4C)cc3)n2)cc1
testTarget: Caenorhabditis elegans L1 (N2)
survival and reproduction score: 4
--
smilesNotation: CCOc1ccccc1-c1nnc(SCc2ccc(C(=O)OC)o2)o1
testTarget: Caenorhabditis elegans L1 (N2)
survival and reproduction score: 4

Moving on to the next molecule.
Lookup result for Cc1cccc(-c2noc(COc3ccc(Br)cc3)n2)c1 ; measured survival and reproduction score: 4
